tested on: CU-ACC1; experiment: area under concentration-response curve (viability) (AUC (a.u.)); higher = less active; settings: 48 h
Recorded area under concentration-response curve for the following compounds
// return just the number, without any unit appended

Observe how each entry below is paired with its result.
[[record]]
structure_notation = "CC(=O)OC[C@@H]1O[C@H]([C@H](OC(C)=O)[C@@H]1OC(C)=O)N2\\C=C/C(=O)NC2=O"
readout_value = 497

[[record]]
structure_notation = "COc1ccc2c(c[n+](C)c3c4cc5c(cc4ccc23)OCO5)c1OC"
readout_value = 445

[[record]]
structure_notation = "COC(=O)N1CC2(CC2)C[C@H](C(=O)NO)[C@H]1C(=O)N1CCN(c2ccccc2)CC1"
readout_value = 412


Shifting focus to the compound that follows.
Documented area under concentration-response curve of `C[C@H]1C[C@H]2[C@@H]3CC\C4=C\C(=O)\C=C/[C@]4(C)[C@H]3C(=O)C[C@]2(C)[C@@]1(O)C(=O)CO` : 511

* * *

test system: NCI-H295R; experiment: area under concentration-response curve (viability) (AUC (a.u.)); higher = less active; conditions: 48 h
Outcome: criterion met for area under concentration-response curve of at least 500; criterion not met for anything lower.

[[record]]
compound = "CO[C@H]1C[C@@H]2CC[C@@H](C)[C@@](O)(O2)C(=O)C(=O)N2CCCC[C@H]2C(=O)O[C@H]([C@H](C)C[C@@H]2CC[C@@H](OC(=O)C(C)(CO)CO)[C@H](OC)C2)CC(=O)[C@H](C)/C=C(\\C)[C@@H](O)[C@@H](OC)C(=O)[C@H](C)C[C@H](C)/C=C/C=C/C=C/1C"
class_assignment = "criterion met"

[[record]]
compound = "C[C@@H]1CN(Cc2ccc(F)cc2)CCN1C(=O)COc1ccc(Cl)cc1NC(N)=O"
class_assignment = "criterion not met"

[[record]]
compound = "OC[C@H]1O[C@@H](O[C@@H]2[C@@H](CO)O[C@](O)(CO)[C@H]2O)[C@H](O)[C@@H](O)[C@H]1O"
class_assignment = "criterion met"


Task item: Check the entry `N[C@@H](Cc1ccc(N(CCCl)CCCl)cc1)C(=O)O` : does area under concentration-response curve equal or exceed 500?
Reply: criterion not met

Task item: Does the compound COc1cc(F)ccc1-c1ncnc(Nc2cccc(C[S+](C)(=N)[O-])c2)n1 (stereo not drawn) have recorded area under concentration-response curve that is 500 or more?
Reply: criterion not met

Task item: Threshold query (area under concentration-response curve >= 500) on `COc1ccc([C@@H]2CC(=O)c3c(O)cc(O[C@@H]4O[C@H](CO[C@@H]5O[C@@H](C)[C@H](O)[C@@H](O)[C@H]5O)[C@@H](O)[C@H](O)[C@H]4O)cc3O2)cc1O`
Reply: criterion met

Task item: Is area under concentration-response curve for `N[S+](=O)([O-])c1cccc2c1C(=O)c1cccc(O)c1C2=O` at or above 500?
Reply: criterion not met

Task item: Exam item: decide whether the reported area under concentration-response curve for `N=C(N)NC(=N)NCCc1ccccc1` is at least 500.
Reply: criterion met

Task item: Check this compound for area under concentration-response curve at or above 500: `C[C@@H]1CC[C@H]2[C@@H](C)C(=O)O[C@@H]3O[C@@]4(C)CC[C@@H]1[C@]32OO4`
Reply: criterion met

Task item: # bool: area under concentration-response curve of `Nc1ccc(/C=C/C(=O)NCc2cc3cc(-c4ccc(C(=O)N5CCC(F)(F)CC5)cc4)cc(-c4ccc(F)cc4)c3o2)cn1` >= 500
Reply: criterion not met

Task item: // inclusive: area under concentration-response curve at least 500? input: `CC1(C)NC(=O)N(c2ccc([N+](=O)[O-])c(C(F)(F)F)c2)C1=O`
Reply: criterion met

Task item: API: above_or_equal(metric=area under concentration-response curve, cutoff=500) for item `C[C@@H]1C[C@H]2[C@@H]3\C=C(C)/C4=C/C5=C(C[C@]4(C)[C@H]3[C@@H](O)C[C@]2(C)[C@@]1(O)C(=O)CO)C=N[N]5C6=CC=CC=C6`
Reply: criterion not met

Task item: Has `O=C(O)CCNc1cc(N2CCc3ccccc3CC2)nc(-c2cccnc2)n1` a recorded area under concentration-response curve greater than or equal to 500?
Reply: criterion met

Task item: Check this compound for area under concentration-response curve at or above 500: `CCN(CC)CCCCNc1ncc2c(n1)N(C)C(=O)N(c1c(Cl)c(OC)cc(OC)c1Cl)C2`
Reply: criterion met

Task item: Given `COc1cc2ncnc(Nc3cccc(Cl)c3)c2cc1OC` , state whether its area under concentration-response curve is at least 500.
Reply: criterion met

* * *

test system: NCI-H295R; assay: ExcessHSA synergy score with TAK-243; higher = less synergy (negative = synergistic); conditions: combined with: TAK-243 (MLN-7243) matrix, 9-point 1:2 dilution
Label YES for high-side ExcessHSA synergy score with TAK-243 (at or above 200) and NO for low-side ExcessHSA synergy score with TAK-243 (below it).

[[record]]
compound = "CC(C)c1cc(-c2n[nH]c(=O)n2-c2ccc3c(ccn3C)c2)c(O)cc1O [Ganetespib (STA-9090)]"
class_assignment = "NO"

[[record]]
compound = "C=CCn1c(=O)c2cnc(Nc3ccc(N4CCN(C)CC4)cc3)nc2n1-c1cccc(C(C)(C)O)n1"
class_assignment = "NO"

[[record]]
compound = "CN(C)C/C=C/C(=O)Nc1ccc(C(=O)Nc2cccc(Nc3ncc(Cl)c(-c4c[nH]c5ccccc45)n3)c2)cc1"
class_assignment = "NO"


Task item: Could you tell me if the measured ExcessHSA synergy score with TAK-243 of `Cc1nc2ccc(F)cc2n1-c1nc(N)c(F)c(Nc2ccc(C(F)(F)F)cc2)n1` reaches 200 or more?
Reply: NO

* * *

tested on: CU-ACC1; experiment: area under concentration-response curve (viability) (AUC (a.u.)); higher = less active; conditions: 48 h
observation-type: area under concentration-response curve
API note: the answer field is a bare number with no unit suffix.

# example entries with known answers
[[record]]
compound = "CN(CCOc1ccc(CC2SC(=O)NC2=O)cc1)c1ccccn1 (stereo not given)"
observation_type = "area under concentration-response curve"
readout_value = 515

[[record]]
compound = "O=C(CCCCCCNC(=O)c1cnc(N(c2ccccc2)c2ccccc2Cl)nc1)NO"
observation_type = "area under concentration-response curve"
readout_value = 464

[[record]]
compound = "COc1nc(OCc2cccc(-c3ccccc3)c2C)ccc1CNCCNC(C)=O"
observation_type = "area under concentration-response curve"
readout_value = 390


// `FC(F)(F)c1ccc(C/N=c2\ccc(Cc3c[nH]c4ncccc34)c[nH]2)cc1` : area under concentration-response curve value = 511

// field: area under concentration-response curve; key: `Cc1nc2ccc(-n3ncc(C(=O)c4cc5ccccc5[nH]4)c3N)cc2[nH]1` ; value = 550

* * *

system: NCI-H295R; assay: area under concentration-response curve (viability) (AUC (a.u.)); higher = less active; conditions: 48 h
Binary call on area under concentration-response curve: Satisfied from 500 upward, Not satisfied beneath that.

Worked examples follow.
[[record]]
compound = "C[S+]([O-])(=O)C1=CC=C(C=C1)C/2=C(/C(=O)OC2)C3=CC=CC=C3"
class_assignment = "Not satisfied"

[[record]]
compound = "N[S+](=O)([O-])c1cc2c(cc1Cl)NCN[S+]2(=O)[O-]"
class_assignment = "Not satisfied"

[[record]]
compound = "CC(=O)N[C@H]1CSSC[C@@H](C(N)=O)NC(=O)[C@H](C(C)C)NC(=O)[C@H](C)NC(=O)[C@H](Cc2cnc[nH]2)NC1=O"
class_assignment = "Satisfied"


Task item: # check: area under concentration-response curve of CC(C)NCC(O)c1ccc(N[S+](C)(=O)[O-])cc1 (stereo unspecified) is greater than or equal to 500
Reply: Satisfied

* * *

test system: CU-ACC1; experiment: area under concentration-response curve (viability) (AUC (a.u.)); higher = less active; settings: 48 h
observation-type: area under concentration-response curve
Form: value (number only, do not type unit).

# example entries with known answers
[[record]]
molecule = "CCNCCc1ccc(CN(CC)c2cc(OC)ccc2[C@@H]2CCc3cc(O)ccc3C2)cc1"
observation_type = "area under concentration-response curve"
readout_value = 447

[[record]]
molecule = "C\\C1=C\\C(=O)OC2=C1C=CC(=C2)O"
observation_type = "area under concentration-response curve"
readout_value = 473

[[record]]
molecule = "COc1ccc(Cn2ccc3ccc(C(=O)NO)cc32)cc1"
observation_type = "area under concentration-response curve"
readout_value = 524


Kindly note the recorded area under concentration-response curve for `CCCOc1ccc(C(=O)OCCN(CC)CC)cc1N` , which is 377

// sample `CC(C)n1cc(-c2ccc3c(c2)N(C)CC3)c2c(N[S+](=O)([O-])c3ccn(C)n3)ccnc21` , its area under concentration-response curve was 516

Looking up `C[S+](=O)([O-])CCNCc1ccc(-c2ccc3ncnc(Nc4ccc(OCc5cccc(F)c5)c(Cl)c4)c3c2)o1` , I see its area under concentration-response curve listed as 420
